# studySystem: Tag1-PD-L1 protein (UniProt Q9NZQ7 19-238)
# Sequence (Q9NZQ7 19-238): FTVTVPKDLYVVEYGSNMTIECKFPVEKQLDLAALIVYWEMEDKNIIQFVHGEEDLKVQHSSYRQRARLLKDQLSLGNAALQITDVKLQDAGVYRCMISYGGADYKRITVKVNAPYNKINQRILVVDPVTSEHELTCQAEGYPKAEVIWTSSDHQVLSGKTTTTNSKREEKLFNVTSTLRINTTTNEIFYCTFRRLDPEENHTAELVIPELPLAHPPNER
# assayInfo: AlphaScreen or HTRF; Cisbio PD-1/PD-L1 HTRF binding assay kit; competition: analyte with Tag1-PD-L1 and Tag2-PD-1 for 15 min at room temperature, then anti-Tag1-Eu3+ and anti-Tag2-XL665 for 2 h at room temperature
# conditionContext: both partners purified
measureName: pIC50
// field semantics: pIC50 = negative decimal log of concentration (mol/L)

| binder | quantitativeResult |
| --- | --- |
| LDVVIHTVTYGDR (from the Ciona intestinalis trypsin hydrolysate; written as one molecule; The parent protein is not known; also called peptide C5; source: trypsin hydrolysate of Ciona intestinalis (AUF); synthetic peptide, GuoPing Pharmaceutical (HTRF, SPR)) [C5] | 4.47 |

Now for a further binder.
Inquiry: Read the entry VLRDNIQGITKPAIR (from the Styela clava trypsin hydrolysate; candidate protein: Histone H4 (Transparent ascidian); the text says that it exactly matches Histone H4 of Ciona savignyi; written as one molecule; also called peptide S2; source: trypsin hydrolysate of Styela clava (AUF); synthetic peptide, GuoPing Pharmaceutical (HTRF, SPR)) [S2] and write its reported pIC50.
Reply text: 3.95
